- protocol_conditions: in methanol, 303.15 K
experimental_endpoint: solubility (mole fraction)

entry_smiles=Cc1cccc([N+](=O)[O-])c1N experimental_endpoint="solubility (mole fraction)" recorded_measurement=0.0212

----------
- protocol_conditions: in acetone, 313.15 K
experimental_endpoint: solubility (mole fraction)

entry_smiles=Cc1cccc([N+](=O)[O-])c1N recorded_measurement=0.301

----------
- protocol_conditions: in toluene, 303.15 K
experimental_endpoint: solubility (mole fraction)

entry_smiles=Cc1cccc([N+](=O)[O-])c1N recorded_measurement=0.0719

----------
- protocol_conditions: in n-propanol, 278.15 K
experimental_endpoint: solubility (mole fraction)

entry_smiles=Cc1cccc([N+](=O)[O-])c1N recorded_measurement=0.0108
